assay: CCTE_Shafer_MEA_acute_burst_percentage_mean: CCTE's Neural Acute Assay for Percentage of Spikes in a Burst, Shafer Lab (AID 2284017)
Calls of active or inactive are those of the source. The calls were made as follows: active = hit-call score of the fitted dose curve at least 0.9, where 1 is the maximum; inactive = score below 0.9.
Output constraint: value belongs to active, inactive

compound	class-label
C=C[Si](OC(C)=O)(OC(C)=O)OC(C)=O	inactive

We now examine a further compound.
Ask: Any idea what this test logged for CN1C(=O)N(C)C(O)C1O (centres undefined) ?
Reply: inactive

---

test: ATG_PXRE_CIS: Attagene CIS-FACTORIAL HepG2 Assay for human Pregnane X Receptor Element (PXRE) (AID 2282957); details: HepG2 Attagene CIS-FACTORIAL PXRE reporter, mRNA; actives raise or lower the signal
Activity calls are given as the source filed them. How the source made its calls: active means hit-call score of the fitted dose curve at least 0.9, where 1 is the maximum; inactive means score below 0.9.
Output constraint: value belongs to active, inactive

Examples from the recorded data:
molecule	class-label
CCCc1ccc(OC)cc1	inactive
CC(C)CCCC(C)CC=O (stereo not given)	active
O=C1CCCCCCCCCCCCCCCO1	inactive
O=C1CC2CC1C1CCCC21 (stereo not given)	active

Ask: Any idea what this test logged for CCCOCCOCCOCCO ?
Reply: inactive

Ask: Any idea what this test logged for C#CC1(O)CC[C@H]2[C@@H]3CCC4=CCCC[C@@H]4[C@H]3CC[C@@]21C (stereo not given in full) ?
Reply: active

Ask: Any idea what this test logged for NC(CO)(CO)CO ?
Reply: active

Ask: Any idea what this test logged for CCOC(=O)c1ccc(N(C)C)cc1 ?
Reply: active

Ask: Any idea what this test logged for CCCCCCCCCCCSCC(=O)O ?
Reply: inactive

Ask: Any idea what this test logged for CC(C)CCCCCOC(=O)CCS ?
Reply: active

Ask: Any idea what this test logged for CC(=O)C=CC1C(C)=CCC(C)C1(C)C (stereo not given) ?
Reply: active

Ask: Any idea what this test logged for NC(=O)OCC(COC(N)=O)c1ccccc1 ?
Reply: inactive

Ask: Any idea what this test logged for O=C(/C=C/C=C/c1ccc2c(c1)OCO2)N1CCCCC1 ?
Reply: active

Ask: Any idea what this test logged for CCCCCC/C=C/C=O ?
Reply: active

Ask: Any idea what this test logged for CCCCCCCCCCc1ccccc1 ?
Reply: inactive

Ask: Any idea what this test logged for CCCCCCCCCCCCCOP(=O)(O)O ?
Reply: active

Ask: Any idea what this test logged for COC(F)(F)C(F)(C(F)(F)F)C(F)(F)F ?
Reply: inactive

Ask: Any idea what this test logged for Cc1ccc(C2OC[C@@H]3OC(c4ccc(C)cc4)O[C@H]([C@H](O)CO)[C@@H]3O2)cc1 (stereo not given in full) ?
Reply: active

Ask: Any idea what this test logged for c1ccc(CNCc2ccccc2)cc1 ?
Reply: active

Ask: Any idea what this test logged for CC/C=C\CCOC(=O)CCCCC ?
Reply: inactive

---

target: Cellular tumor antigen p53 (Homo sapiens); assay: TOX21_p53_BLA_p2_ratio: Tox21 HCT-116 p53 Agonism Beta-lactamase Assay, Ratio, Phase 2 (AID 2283592)
Inconclusive results are not listed. The source made the active and inactive calls. Rule for the calls: active = hit-call score of the fitted dose curve at least 0.9, where 1 is the maximum; inconclusive = response in the unintended direction; inactive = score below 0.9.
Output constraint: value belongs to active, inactive

Examples from the recorded data:
compound	class-label
CCCCCCCCO[C@@H]1O[C@H](CO)[C@@H](O)[C@H](O)[C@H]1O	inactive
OC1CCCCCCCCCCC1	inactive
CC(=O)NS(=O)(=O)c1ccc(N)cc1	inactive
CC(=O)C=CC1C(C)=CCC(C)C1(C)C (stereo unspecified)	inactive
CC(C)(Oc1ccc(C2CC2(Cl)Cl)cc1)C(=O)O (stereo unspecified)	inactive

Ask: Any idea what this test logged for COc1c2ccoc2cc2oc(=O)ccc12 ?
Reply: inactive

Ask: Any idea what this test logged for O=C(OCC1CCC2OC2C1)C1CCC2OC2C1 (stereo unspecified) ?
Reply: inactive

Ask: Any idea what this test logged for CC(C)CCCC(C)CC=O (stereo unspecified) ?
Reply: inactive

Ask: Any idea what this test logged for COc1cc(NC(=O)CC(C)=O)c(OC)cc1Cl ?
Reply: inactive

Ask: Any idea what this test logged for CCCOC(=O)CCCCC(=O)OCCC ?
Reply: inactive

Ask: Any idea what this test logged for CCCCCCCCCCOC(C)=O ?
Reply: inactive

Ask: Any idea what this test logged for CC(C)(C)c1ccc(OC(=O)c2ccccc2O)cc1 ?
Reply: inactive

Ask: Any idea what this test logged for Cc1cnc(NC(=O)C2=C(O)c3ccccc3S(=O)(=O)N2C)s1 ?
Reply: inactive

Ask: Any idea what this test logged for Cc1oncc1C(=O)Nc1ccc(C(F)(F)F)cc1 ?
Reply: inactive

Ask: Any idea what this test logged for COc1ccc([C@@H]2CC(=O)c3c(O)cc(O[C@@H]4O[C@H](CO[C@@H]5O[C@@H](C)[C@H](O)[C@@H](O)[C@H]5O)[C@@H](O)[C@H](O)[C@H]4O)cc3O2)cc1OC ?
Reply: inactive

Ask: Any idea what this test logged for CC(=O)Oc1ccc(C)cc1 ?
Reply: inactive

Ask: Any idea what this test logged for CC(C)C1=CC2=CC[C@@H]3[C@](C)(CCC[C@@]3(C)C(=O)O)[C@H]2CC1 ?
Reply: inactive
